The origin of these recorded values is PubChem BioAssay.

Examples of molecules with documented composite z-score follow.
target: Dihydroorotate dehydrogenase (quinone), mitochondrial (Plasmodium falciparum (isolate 3D7)) (UniProt Q08210); assay: inhibition of P. falciparum DHODH – biochemical, C-terminal His tag, absorbance 600 nm, primary screen (AID 1175); conditions: PfDHODH enzyme, DCIP absorbance 600 nm; higher = more signal, called active from +8 up or from −8 down;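 note: recombinant parasite enzyme with a five histidine tag at its C terminus; test concentration not given here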
Sequence (Q08210 whole entry, looked up): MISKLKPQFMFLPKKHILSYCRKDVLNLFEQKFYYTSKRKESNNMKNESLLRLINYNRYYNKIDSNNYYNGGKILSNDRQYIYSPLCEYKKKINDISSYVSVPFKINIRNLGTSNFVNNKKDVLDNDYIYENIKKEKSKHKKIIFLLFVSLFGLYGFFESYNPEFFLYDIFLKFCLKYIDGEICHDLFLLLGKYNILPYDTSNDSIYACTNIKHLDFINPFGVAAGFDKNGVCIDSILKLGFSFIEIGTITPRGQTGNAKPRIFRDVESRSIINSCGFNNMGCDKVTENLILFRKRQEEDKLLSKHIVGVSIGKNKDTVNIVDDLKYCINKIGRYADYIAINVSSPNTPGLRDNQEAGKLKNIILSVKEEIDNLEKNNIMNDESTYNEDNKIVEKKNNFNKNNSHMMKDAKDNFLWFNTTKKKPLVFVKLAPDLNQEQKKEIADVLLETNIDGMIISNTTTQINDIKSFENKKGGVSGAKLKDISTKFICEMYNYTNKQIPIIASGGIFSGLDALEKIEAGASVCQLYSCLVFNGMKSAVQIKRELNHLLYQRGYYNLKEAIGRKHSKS
The response must contain the number and no unit.

Looking for the measured composite z-score of `CC#CCO[Si](C#Cc1ccccc1)(C(C)C)C(C)C` , can you help?
0.108

Next molecule: `COCCOC(=O)N1C(=O)[C@@]2(c3cc(C#CCCO)ccc31)[C@H](C(=O)Nc1nc3ccccc3s1)[C@H]1C(=O)O[C@H](c3ccccc3)[C@H](c3ccccc3)N1[C@@H]2c1ccc(O)cc1`
1.35

###

assay: optical density shifts of acrAB sulA E. coli – strain DRC41, OD650, 48 h, E. coli filamentation inducer project, primary screen (AID 1152); settings: higher = more signal, called active from +8 up or from −8 down;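 note: E. coli MC1000 strain DRC41 lacking acrAB efflux pump and sulA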
Examples of molecules with documented z-score follow.
The response must contain the number and no unit.

# count of solved cases: 7
CC(C)C(CO)N1C(=O)[C@@H]2C3C(=O)OCCC/C=C\[C@H]3OC23C=CCN(Cn2nnc4ccccc42)C(=O)[C@@H]13 (stereo partly drawn); 0.302
CCOC(=O)C[C@H]1[C@H](OC(=O)c2cc3ccccc3oc2=O)[C@@H](NC(=O)c2ccc3ccccc3n2)c2cc(OCCCO)ccc2N1C(=O)Cc1ccc(OC)cc1; 0.116
COc1ccc([Si](C)(C)[C@@H]2[C@@H](CCO)O[C@]3(C(=O)N(Cc4ccccc4)c4ccc(N5CCOC5=O)cc43)[C@H]2C)cc1; 0.519
CC(C)c1ccc(NN2C(C(O)c3ccc(C#N)cc3)C=CC3C(=O)N(c4ccccc4)C(=O)C32)cc1 (stereo not drawn); -1.6
CCCNC(=O)[C@@]1(C)c2ccccc2C(=O)N(c2ccc(C)cn2)[C@H]1c1ccc(CO)cc1; -0.819
CC[C@@H]1C=C(C(=O)O)[C@H](c2ccc(C#N)cc2)N1S(=O)(=O)c1ccc(C)cc1; -0.29
COc1cc2c(cc1O)C(C1CC1)N(C)CC2 (stereo not drawn); 0.941

Looking for the measured z-score of `O=C1N(Cc2ccccc2)c2ccccc2C[C@]12N=C(c1ccc(OCCCO)cc1)O[C@@H]2c1ccccc1` , can you help?
-0.522

###

experiment: probe aNOTCH2 binding on compound microarray – biochemical, small-molecule microarray, 635/667 nm fluorescence, primary screen (AID 1121); conditions: higher = more signal;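 note: score merges feature fluorescence read at 667 nm with its signal to noise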
ENDPOINT NAME: composite z-score
The response must contain the number and no unit.

Looking for the measured composite z-score of `O=C1O[C@@H](c2ccccc2)[C@@H](c2ccccc2)N2[C@@H](c3ccc(OCCO)cc3)[C@]3(C(=O)Nc4ccc(C#CC5=CCCCC5)cc43)[C@@H](C(=O)NC[C@H](O)c3ccccc3)[C@H]12` , can you help?
0.338

Next compound: `CCOC(=O)C[C@H]1[C@H](OC(=O)c2ccc(C(=O)c3ccccc3)cc2)[C@@H](NC(=O)C2CCCCC2)c2cc(OCCCO)ccc2N1C(=O)c1ccc2ccccc2n1`
-0.102

Next compound: `C=CC[C@@H](OC(=O)Nc1ccc(OC)cc1)c1ccc(O)c(F)c1`
-0.153

Next compound: `CN(C)C(=O)[C@]1(Cc2ccccc2CN=[N+]=[N-])N=C(c2ccc(OCCCO)cc2)O[C@@H]1c1ccccc1`
-0.0896

Next compound: `Cc1ccc(S[C@]2(C(=O)NCC(F)(F)F)CC(=O)N(Cc3cc(C(F)(F)F)cc(C(F)(F)F)c3)[C@@H]2c2ccc(CO)cc2)cc1`
-0.164

Next compound: `COCCOC(=O)N1C(=O)[C@@]2(c3cc(C#CC4(O)CCCCCC4)ccc31)[C@H](c1ccc(O)cc1)N1[C@H](c3ccccc3)[C@H](c3ccccc3)OC(=O)[C@H]1[C@@H]2C(=O)N1CCN(c2ncccn2)CC1`
-0.12

###

assay: probe aNOTCH2 binding on compound microarray – biochemical, small-molecule microarray, 635/667 nm fluorescence, primary screen (AID 1121); conditions: higher = more signal;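 note: score merges feature fluorescence read at 667 nm with its signal to noise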
Examples of compounds with documented composite z-score follow.
The response must contain the number and no unit.

Looking for the measured composite z-score of O=C1CS(=O)(=O)C(c2cccc([N+](=O)[O-])c2)N1c1ccccc1 (configuration not stated) , can you help?
0.48

Next compound: Cc1ccc(NN2C(C(O)c3c(F)cccc3Cl)C=CC3C(=O)N(C4CCCCC4)C(=O)C32)cc1 (configuration not stated)
0.174

Next compound: CS(=O)(=O)CCOC(=O)C1=CC(c2ccc(CO)cc2)=CC(C2CC2)N(Cc2sc3ccccc3c2Cl)C=C1C(=O)OCCS(C)(=O)=O (configuration not stated)
-0.0839

Next compound: `CCCC[C@@H](O)C1=C(COC)C[C@H]2C(=O)N(C)C(=O)[C@H]2[C@H]1CO`
-0.217

Next compound: `CO[C@H]1O[C@H](CO)[C@@H](OC(=O)CCc2ccccc2)[C@@H]2OC(=O)[C@@H](Cc3ccccc3)C/C=C/C[C@H](Cc3ccccc3)C(=O)O[C@@H]12`
-0.0861

Next compound: `CCC#CCN(Cc1ccccc1Br)[C@H](/C=C/C1CC1)[C@@H](O)Cc1ccccc1`
-0.176

Next compound: O=C(C1N=C(c2ccc(OCCCO)cc2)N(c2ccccc2)O1)N1CCCCC1 (configuration not stated)
0.116

###

experiment: budding yeast growth modifiers under rapamycin – strain BY4716, OD600, 96 h, primary screen (AID 1091); note: test concentration not given here; conditions: S. cerevisiae BY4716 + rapamycin, higher = more signal, called active from +8 up or from −8 down
The source made the active and inactive calls.
ENDPOINT NAME: z-score

CCOC(=O)C[C@H]1[C@H](OC(=O)c2cc3ccccc3oc2=O)[C@@H](NC(=O)CC(C)C)c2cc(OCCCO)ccc2N1C(=O)c1ccc2ccccc2n1; 0.665 (inactive)
CO[C@H]1O[C@H](CO)[C@@H](OC(=O)Nc2ccc(Br)cc2)[C@@H]2OC(=O)[C@@H](Cc3ccccc3)C/C=C/C[C@H](Cc3ccccc3)C(=O)O[C@@H]12; 3.58 (inactive)
NCCCCCNC(=O)[C@@H]1C[C@@H]2C(=O)N[C@@H](CCCCN)C(=O)N2[C@@H]1c1ccc(O)cc1; 3.76 (inactive)
CCCN1C(=O)[C@]2(Cc3ccccc31)N=C(c1ccc(OCCCO)cc1)O[C@@H]2c1ccccc1; 1.44 (inactive)
CCCCN1CC=CC23O[C@@H]4/C=C\CCC(C)OC(=O)C4[C@H]2C(=O)N(CCCO)[C@@H]3C1=O (some centres not stated); 0.528 (inactive)
CC(C)c1ccc(NN2C(C(O)c3ccc(F)cc3)C=CC3C(=O)N(c4ccccc4)C(=O)C32)cc1 (configuration not stated); 0.159 (inactive)

Proceed to the following item.
Looking for the measured z-score of `COC(=O)c1c(CC[C@@H](CO)NC(=O)N[C@@H](C)Cn2cc(-c3ccccn3)nn2)oc(C(C)=O)c1C(=O)OC` , can you help?
0.198 (inactive)

###

assay: calcein-AM signal in unstimulated myeloma cells – cell-based, calcein-AM fluorescence, 48 h, PK04 Diversity Set, profiling panel (AID 1166); settings: RPMI8226 myeloma viability, higher = more signal;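 note: cells grown under basal conditions without added stimulus; test concentration not given here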
Examples of molecules with documented z-score follow.

# count of solved cases: 5
CC(C)[Si]1(C(C)C)OCc2cc(C3CC3)nc(-c3ccc(Oc4ccccc4)cc3)c21; -1.94
CCOC(=O)C[C@H]1[C@H](OC(=O)c2ccc(C(=O)c3ccccc3)cc2)[C@@H](NC(=O)c2ccc3ccccc3n2)c2cc(OCCCO)ccc2N1C(=O)Cc1ccc(OC)cc1; 0.0914
CCCC1(C(=O)OC)C=C2C(=C(C)C(=O)C2C)CN1 (stereo unspecified); -1.03
COC(=O)c1c(CC[C@@H](CO)NC(=O)N2CCC[C@H]2Cn2cc(C3(O)CCCCC3)nn2)oc(C(C)=O)c1C(=O)OC; 0.577
CCCCCCCCCCC(O)C1C=CC2C(=O)N(c3ccccc3)C(=O)C2N1Nc1ccc(C#N)cc1 (stereo unspecified); -4.13

Looking for the measured z-score of O=C1C2C=CC(C(O)C3CC=CCC3)N(Nc3ccccc3)C2C(=O)N1c1ccccc1 (stereo unspecified) , can you help?
-1.14

Next molecule: `CCOC(=O)[C@@H]1CCCCN1C(=O)C(=O)OC`
0.13

Next molecule: `CCCNC(=O)[C@@H]1c2ccccc2C(=O)N(Cc2ccc(OC(F)(F)F)cc2)[C@H]1c1ccc(CO)cc1`
0.485

Next molecule: C=CCC(OC(C)=O)[C@@H]1[C@@H](N(Cc2cccc3ccccc23)C(=O)Cc2ccc(OC)cc2)c2cc(OCCCO)ccc2N1C(=O)c1ccc(-c2ccccc2)cc1 (stereo partly specified)
0.0509

Next molecule: CN(C)c1ccc(C(O)C2C=CC3C(=O)NC(=O)C3N2Nc2ccccn2)cc1 (stereo unspecified)
-0.333

Next molecule: `CCOC(=O)C1=C[C@@H](C(C)(C)C)N(S(=O)(=O)c2ccc(C)cc2)[C@H]1c1cccc2ccccc12`
-2.97

Next molecule: CC(C)C(O)C1C=CC2C(=O)N(c3ccccc3)C(=O)C2N1Nc1ccccc1 (stereo unspecified)
-1.03

Next molecule: Cc1ccc(C(C)CC(O)C2C=CC3C(=O)N(c4ccccc4)C(=O)C3N2Nc2ccccc2)o1 (stereo unspecified)
-1.69

Next molecule: `COCCOC(=O)N1C(=O)[C@@]2(c3cc(C#CCC(C(=O)OC)C(=O)OC)ccc31)[C@H](c1ccc(OCCO)cc1)N1[C@H](c3ccccc3)[C@H](c3ccccc3)OC(=O)[C@H]1[C@@H]2C(=O)N1CCc2cc(OC)c(OC)cc2C1`
-0.467

Next molecule: `Cc1ccc(S[C@]2(C(=O)O)CC(=O)N(C3CCCCC3)[C@@H]2c2ccc(CO)cc2I)cc1`
-2.13

Next molecule: COc1cc(NN2C(C(O)c3cc(OC)c(OC)c(OC)c3)C=CC3C(=O)N(C)C(=O)C32)cc(OC)c1OC (stereo unspecified)
-0.176
